Test system: CCRF-CEM
method.summary: Cytotoxicity against human CCRF-CEM cells at 10^-4 M after 48 hrs by SRB assay
Format: functional
condition.summary: read-out: GI
inhibition of growth at 100 µM listing for selected molecules.
Just the number in %, nothing appended.

Would you please look over these solved cases?
| structure.smiles.string | inhibition of growth at 100 µM, % |
| --- | --- |
| C#CCN(Cc1nc2cc(C(F)(F)F)ccc2nc1-c1ccccc1)c1ccc(F)cc1 | 94 |
| C#CCN(Cc1nc2cc(C(F)(F)F)ccc2nc1-c1ccccc1)c1ccc(F)c(F)c1 | 98 |

Exercise: Quick check: inhibition of growth at 100 µM on CCRF-CEM, item CCN(Cc1nc2cc(C(F)(F)F)ccc2nc1-c1ccccc1)c1ccc(OC)c(OC)c1 ?
Solution: 146

###

Test system: SW-620
method.summary: Cytotoxicity against human SW620 cells at 10^-4 M after 48 hrs by SRB assay
Format: functional
condition.summary: SW-620, 48 h, read-out: GI
Consider the following molecules and their measured inhibition of growth at 100 µM readings.
Your answer is read as %, so omit the unit and give the number.

| structure.smiles.string | inhibition of growth at 100 µM, % |
| --- | --- |
| C#CCN(Cc1nc2cc(C(F)(F)F)ccc2nc1-c1ccccc1)c1ccc(F)c(F)c1 | 82 |
| C#CCN(Cc1nc2cc(C(F)(F)F)ccc2nc1-c1ccccc1)c1ccc(F)cc1 | 93 |
| CCN(Cc1nc2cc(C(F)(F)F)ccc2nc1-c1ccccc1)c1ccc(OC)c(OC)c1 | 164 |
| C#CCN(Cc1nc2cc(C(F)(F)F)ccc2nc1-c1ccccc1)c1ccc(C)cc1 | 79 |

Exercise: Would you mind telling me what inhibition of growth at 100 µM value was observed for C#CCN(Cc1nc2cc(C(F)(F)F)ccc2nc1-c1ccccc1)c1ccc(OC(F)(F)F)cc1 ?
Solution: 75

###

Tested on: BT-549
method.summary: Cytotoxicity against human BT549 cells at 10^-4 M after 48 hrs by SRB assay
Assay type: functional
condition.summary: BT-549, 48 h, read-out: GI
quantity.measured: inhibition of growth at 100 µM (%)
Please reply with the bare figure in % and do not write the unit itself.

| structure.smiles.string | assayed.system | inhibition of growth at 100 µM [%] |
| --- | --- | --- |
| C#CCN(Cc1nc2cc(C(F)(F)F)ccc2nc1-c1ccccc1)c1ccc(OC(F)(F)F)cc1 | BT-549 | 86 |
| CCN(Cc1nc2cc(C(F)(F)F)ccc2nc1-c1ccccc1)c1ccc(OC)c(OC)c1 | BT-549 | 167 |
| C#CCN(Cc1nc2cc(C(F)(F)F)ccc2nc1-c1ccccc1)c1ccc(F)c(F)c1 | BT-549 | 67 |

Exercise: For the molecule C#CCN(Cc1nc2cc(C(F)(F)F)ccc2nc1-c1ccccc1)c1ccc(C)cc1 , what inhibition of growth at 100 µM is on record?
Solution: 104

Exercise: Sample C#CCN(Cc1nc2cc(C(F)(F)F)ccc2nc1-c1ccccc1)c1ccc(F)cc1 — what was its inhibition of growth at 100 µM?
Solution: 77

###

method.summary: Cytotoxicity against human OVCAR5 cells at 10^-4 M after 48 hrs by SRB assay
Format: functional
condition.summary: OVCAR-5, 48 h, read-out: GI
quantity.measured: inhibition of growth at 100 µM (%)
Report only the number, with the unit % understood.

# example entries with known answers
| structure.smiles.string | quantity.measured | numeric.readout |
| --- | --- | --- |
| C#CCN(Cc1nc2cc(C(F)(F)F)ccc2nc1-c1ccccc1)c1ccc(C)cc1 | inhibition of growth at 100 µM | 200 |
| C#CCN(Cc1nc2cc(C(F)(F)F)ccc2nc1-c1ccccc1)c1ccc(F)cc1 | inhibition of growth at 100 µM | 56 |

Shifting focus to the molecule that follows.
Exercise: Please give the measured inhibition of growth at 100 µM for this molecule: CCN(Cc1nc2cc(C(F)(F)F)ccc2nc1-c1ccccc1)c1ccc(OC)c(OC)c1
Solution: 152
